FYI, the data here is from patent US20140249135A1.

Quick reference for IC50 among some molecules
Molecular target: Pim2 kinase (Homo sapiens, UniProt Q9P1W9)
Sequence (Q9P1W9 whole entry): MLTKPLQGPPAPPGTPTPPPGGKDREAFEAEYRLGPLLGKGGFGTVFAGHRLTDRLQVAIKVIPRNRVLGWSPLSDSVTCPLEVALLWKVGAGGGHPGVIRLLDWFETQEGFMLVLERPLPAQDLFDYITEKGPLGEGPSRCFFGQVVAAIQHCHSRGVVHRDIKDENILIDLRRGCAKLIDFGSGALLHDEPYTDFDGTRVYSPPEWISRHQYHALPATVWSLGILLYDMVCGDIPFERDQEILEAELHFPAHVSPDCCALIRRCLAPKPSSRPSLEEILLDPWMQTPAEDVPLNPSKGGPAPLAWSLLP
Experiment: Pim2 ATP depletion assay;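 further: Luciferase-based luminescent readout of ATP remaining after PIM2 phosphorylates a BAD peptide, final 5 nM enzyme, 4 µM ATP, 10 µM peptide, 2.5% DMSO, run to roughly half ATP consumption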
Format: biochemical
Conditions: read-out: IC50 (μM) PIM2

The cases that follow already have their IC50 on record.
molecule	IC50
Nc1nccnc1C(=O)Nc1cc(C(=O)C2CC2)ccc1N1CCC(N)CC1	10 to 25 µM
CC1CC(N)CN(c2ccncc2NC(=O)c2nc(-c3c(F)cccc3F)ccc2N)C1 (centres unmarked)	< 1 µM
Nc1ccc(-c2c(F)cccc2F)nc1C(=O)Nc1cnccc1N1CC[C@@H]2OC(=O)N[C@@H]2C1	< 1 µM
COc1ccc(-c2cnc(N)c(C(=O)Nc3cnccc3N3CCNCC3)n2)cc1	< 1 µM
Nc1cc(F)c(-c2c(F)cccc2F)nc1C(=O)Nc1cnccc1N1CCC[C@H](N)C1	< 1 µM
COc1cccc(-c2ccc(N)c(C(=O)Nc3cnccc3N3CCC[C@H](N)C3)n2)c1F	< 1 µM
Nc1ccc(-c2c(F)ccc(OCc3ccccc3Cl)c2F)nc1C(=O)Nc1cnccc1N1CCC[C@H](N)C1	< 1 µM
CC(C)NC(=O)c1ccc(F)c(-c2cccc(C(=O)Nc3cnccc3N3CCC[C@H](N)C3)n2)c1	< 1 µM

Report IC50 from Pim2 kinase (Homo sapiens, UniProt Q9P1W9) testing of Nc1ccc(-c2ccc(N)c(C(=O)Nc3cnccc3N3CCC[C@H](N)C3)n2)c(F)n1 < 1 µM

Report IC50 from Pim2 kinase (Homo sapiens, UniProt Q9P1W9) testing of Nc1nccnc1C(=O)Nc1[nH]c(=O)ncc1-c1nccs1 < 1 µM

Report IC50 from Pim2 kinase (Homo sapiens, UniProt Q9P1W9) testing of COCCOc1nc(-c2ccc(N)c(C(=O)Nc3cnccc3N3CCC[C@H](N)C3)n2)cnc1N < 1 µM

Report IC50 from Pim2 kinase (Homo sapiens, UniProt Q9P1W9) testing of NC(=O)c1ccc(N2CCCCC2)c(NC(=O)c2nccnc2N)c1 1 to 10 µM

Report IC50 from Pim2 kinase (Homo sapiens, UniProt Q9P1W9) testing of Nc1ccc(-c2cccc(Br)c2)nc1C(=O)Nc1cnccc1N1CCC[C@H](N)C1 < 1 µM

Report IC50 from Pim2 kinase (Homo sapiens, UniProt Q9P1W9) testing of Nc1ccc(-c2ccc(Cl)cc2F)nc1C(=O)Nc1cnccc1N1CCC[C@H](N)C1 < 1 µM

Report IC50 from Pim2 kinase (Homo sapiens, UniProt Q9P1W9) testing of Nc1ncc(Br)nc1C(=O)Nc1[nH]c(=O)ncc1N1CCC(F)(F)CC1 < 1 µM

Report IC50 from Pim2 kinase (Homo sapiens, UniProt Q9P1W9) testing of Nc1ccc(-c2cc(C(=O)NC3CCCCC3)ccc2F)nc1C(=O)Nc1cnccc1N1CCC[C@H](N)C1 < 1 µM

Report IC50 from Pim2 kinase (Homo sapiens, UniProt Q9P1W9) testing of Nc1nccnc1C(=O)Nc1ccccc1N1CCNCC1 > 25 µM

* * *

Quick reference for EC50 among some molecules
System: KMS 11 (human myeloma cell line)
Test: Cell proliferation assay (CellTiter-Glo), KMS 11
Type: cell-based
Details: KMS11 cells, read-out: EC50 (μM) KMS11

mol_smiles	readout_type	result
CC(C)NC(=O)c1ccc(F)c(-c2ccc(N)c(C(=O)Nc3cnccc3N3CCC[C@H](N)C3)n2)c1	EC50	1 to 5 µM
CO[C@@H]1C[C@H](N)CN(c2ccncc2NC(=O)c2nc(-c3c(F)cccc3F)ccc2N)C1	EC50	< 1 µM
CN(C)C(=O)c1ccc(F)c(-c2ccc(N)c(C(=O)Nc3cnccc3N3CCC[C@H](N)C3)n2)c1	EC50	< 1 µM
CC(C)NC(=O)c1ccc(F)c(-c2nc(C(=O)Nc3cnccc3N3CCC[C@H](N)C3)ccc2F)c1	EC50	1 to 5 µM

Report EC50 from KMS 11 (human myeloma cell line) testing of Nc1ccc(-c2c(F)cccc2F)nc1C(=O)Nc1cnccc1N1CCC[C@H](N)C1 < 1 µM

Report EC50 from KMS 11 (human myeloma cell line) testing of N[C@H]1CCCN(c2ccncc2NC(=O)c2ccc(F)c(-c3ccccc3)n2)C1 1 to 5 µM

Report EC50 from KMS 11 (human myeloma cell line) testing of CO[C@@H]1C[C@H](N)CN(c2ccncc2NC(=O)c2nc(-c3cc(C(=O)NC(C)C)ccc3F)ccc2N)C1 < 1 µM

Report EC50 from KMS 11 (human myeloma cell line) testing of N[C@H]1CCCN(c2ccncc2NC(=O)c2ccc(F)c(-c3c(F)cccc3F)n2)C1 1 to 5 µM
